Numbers sourced from paper PMC9130233.

Test: Toxicokinetics (blood), 14-day inhalation study in Sprague Dawley rats
Format: in vivo, rat
Details: both sexes, Sprague-Dawley, rat, whole blood, inhaled or intranasal, 10.8 mg/kg/day, SD rat blood, inhalation, 10.8 mg/kg/day, Day 1, Mean
PROPERTY_NAME: half-life (h)

{"SMILES_STRUCTURE": "CCn1c(C(C)(C)Oc2ccc(F)cc2F)nc2cc(NC(=O)Cc3ccc(S(=O)(=O)CC)cc3)ccc21", "READOUT_VALUE": 5.9}

----------
Assay: Toxicokinetics (blood), 14-day inhalation study in Sprague Dawley rats
Assay type: in vivo, rat
Conditions: male, Sprague-Dawley, rat, blood, inhaled or intranasal, 3.4 mg/kg/day, SD rat blood, inhalation, 3.4 mg/kg/day, Day 14, Male; read-out: Cmax, mean (SE)

{"SMILES_STRUCTURE": "CCn1c(C(C)(C)Oc2ccc(F)cc2F)nc2cc(NC(=O)Cc3ccc(S(=O)(=O)CC)cc3)ccc21", "Cmax": "190 ng/mL"}
